- Assay target: Mitogen-activated protein kinase 8 (Homo sapiens)
- Assay procedure: Inhibition of JNK1-mediated ATF2 phosphorylation
Measured property: IC50 (nM)
Numeric only. Scale: nM

Solved entries (count: 5):
Structure smiles string: CCOc1nc(NC(=O)Cc2ccccc2)cc(N)c1C#N
IC50, nM: 570
//
Structure smiles string: CCOc1nc(NC(=O)Cc2ccc(OC)cc2)cc(N)c1C#N
IC50, nM: 180
//
Structure smiles string: COc1ccc(OC)c(CC(=O)Nc2cc(N)c(C#N)c(OCCS(C)(=O)=O)n2)c1
IC50, nM: 400
//
Structure smiles string: COc1nc(NC(C)=O)cc(N)c1C#N
IC50, nM: 2200
//
Structure smiles string: CCOc1nc(NC(=O)Cc2cc(OC)c(NC(C)=O)cc2OC)cc(N)c1C#N
IC50, nM: 35

Turning now to a further molecule:
**Query** What value of IC50 on Mitogen-activated protein kinase 8 (Homo sapiens) does CCOc1nc(NC(=O)Cc2ccc(Cl)cc2)cc(N)c1C#N have?
**Result** 580

* * *

- Assay target: Mitogen-activated protein kinase 8 (Homo sapiens, UniProt P45983)
- Sequence (P45983 whole entry): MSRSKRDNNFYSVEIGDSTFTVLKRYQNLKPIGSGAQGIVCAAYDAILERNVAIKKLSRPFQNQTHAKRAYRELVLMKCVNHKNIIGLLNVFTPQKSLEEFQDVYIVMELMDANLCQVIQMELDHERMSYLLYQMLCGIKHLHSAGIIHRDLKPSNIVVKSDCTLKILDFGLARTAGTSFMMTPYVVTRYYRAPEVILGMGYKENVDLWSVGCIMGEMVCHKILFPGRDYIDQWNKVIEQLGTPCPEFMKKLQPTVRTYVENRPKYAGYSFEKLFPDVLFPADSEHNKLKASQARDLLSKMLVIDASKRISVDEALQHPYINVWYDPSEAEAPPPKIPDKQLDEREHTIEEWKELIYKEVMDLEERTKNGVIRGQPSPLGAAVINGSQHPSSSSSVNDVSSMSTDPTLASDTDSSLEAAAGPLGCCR
- Assay procedure: Inhibition of JNK1-mediated ATF2 phosphorylation
Measured property: IC50 (µM)
Numeric only. Scale: µM

Solved entries (count: 5):
Compound: CCNc1nc(NC(C)=O)cc(N)c1C#N
Assay target: Mitogen-activated protein kinase 8 (Homo sapiens, UniProt P45983)
IC50 / µM: 2.4

Compound: CCOc1nc(NC(=O)Cc2ccc(C)cc2)cc(N)c1C#N
Assay target: Mitogen-activated protein kinase 8 (Homo sapiens, UniProt P45983)
IC50 / µM: 0.19

Compound: CC(=O)Nc1cc(N)c(C#N)c(OC2CCOC2)n1 (configuration not stated)
Assay target: Mitogen-activated protein kinase 8 (Homo sapiens, UniProt P45983)
IC50 / µM: 0.89

Compound: CCOc1nc(NC(=O)Cc2cccc(Cl)c2)cc(N)c1C#N
Assay target: Mitogen-activated protein kinase 8 (Homo sapiens, UniProt P45983)
IC50 / µM: 0.3

Compound: CCOc1nc(NC(=O)Cc2cccc(OC)c2)cc(N)c1C#N
Assay target: Mitogen-activated protein kinase 8 (Homo sapiens, UniProt P45983)
IC50 / µM: 0.21

**Query** Give its IC50 value. Item: COc1ccc(OC)c(CC(=O)Nc2cc(N)c(C#N)c(OCCO)n2)c1
**Result** 0.074

**Query** Give its IC50 value. Item: COc1ccc(OC)c(CC(=O)Nc2cc(N)c(C#N)cn2)c1
**Result** 2.6

**Query** Give its IC50 value. Item: CCOc1nc(NC(=O)Cc2cc(OC)c([N+](=O)[O-])cc2OC)cc(N)c1C#N
**Result** 0.069

**Query** Give its IC50 value. Item: CCOc1nc(NC(=O)CN2CCC(O)CC2)cc(N)c1C#N
**Result** 0.3

* * *

- Assay procedure: AUC in iv dosed Sprague-Dawley rat
- Assay type: ADME, organism-based
- Experimental context: plasma
Measured property: AUC
Write the numeric value and append its unit.

Structure smiles string: COc1cc(S(C)(=O)=O)c(OC)cc1CC(=O)Nc1cc(N)c(C#N)c(OC(C)C)n1
Result: 2200 ng·h/mL

Structure smiles string: CCOc1nc(NC(=O)Cc2cc(OC)ccc2OC)cc(N)c1C#N
Result: 4100 ng·h/mL

Structure smiles string: CCOc1nc(NC(=O)Cc2cc(OC)c(S(C)(=O)=O)cc2OC)cc(N)c1C#N
Result: 3500 ng·h/mL

Turning now to a further molecule:
**Query** Give its AUC value. Item: CCOc1nc(NC(=O)Cc2cc(OC)c(S(C)(=O)=O)cc2OC)cc(N)c1Cl
**Result** 3000 ng·h/mL

* * *

- Assay target: Receptor tyrosine-protein kinase erbB-2 (Homo sapiens, UniProt P04626)
Measured property: Ki

**Query** Give its Ki value. Item: CCOc1nc(NC(C)=O)cc(N)c1C#N
**Result** > 1400 nM

* * *

- Assay procedure: Tmax in po dosed Sprague-Dawley rat
- Type: ADME, organism-based
- Experimental context: in vivo
Attribute: Tmax
Numeric only. Scale: min

Structure smiles string: CCOc1nc(NC(=O)Cc2cc(OC)c(S(C)(=O)=O)cc2OC)cc(N)c1Cl
Measured number: 40.2
--
Structure smiles string: CCOc1nc(NC(=O)Cc2cc(OC)c(S(C)(=O)=O)cc2OC)cc(N)c1C#N
Measured number: 30
--
Structure smiles string: COc1cc(S(C)(=O)=O)c(OC)cc1CC(=O)Nc1cc(N)c(C#N)c(OC(C)C)n1
Measured number: 45

Turning now to a further molecule:
**Query** Give its Tmax value. Item: CCOc1nc(NC(=O)Cc2cc(OC)ccc2OC)cc(N)c1C#N
**Result** 1.98

* * *

- Assay target: Macrophage colony-stimulating factor 1 receptor (Homo sapiens, UniProt P07333)
- Sequence (P07333 whole entry): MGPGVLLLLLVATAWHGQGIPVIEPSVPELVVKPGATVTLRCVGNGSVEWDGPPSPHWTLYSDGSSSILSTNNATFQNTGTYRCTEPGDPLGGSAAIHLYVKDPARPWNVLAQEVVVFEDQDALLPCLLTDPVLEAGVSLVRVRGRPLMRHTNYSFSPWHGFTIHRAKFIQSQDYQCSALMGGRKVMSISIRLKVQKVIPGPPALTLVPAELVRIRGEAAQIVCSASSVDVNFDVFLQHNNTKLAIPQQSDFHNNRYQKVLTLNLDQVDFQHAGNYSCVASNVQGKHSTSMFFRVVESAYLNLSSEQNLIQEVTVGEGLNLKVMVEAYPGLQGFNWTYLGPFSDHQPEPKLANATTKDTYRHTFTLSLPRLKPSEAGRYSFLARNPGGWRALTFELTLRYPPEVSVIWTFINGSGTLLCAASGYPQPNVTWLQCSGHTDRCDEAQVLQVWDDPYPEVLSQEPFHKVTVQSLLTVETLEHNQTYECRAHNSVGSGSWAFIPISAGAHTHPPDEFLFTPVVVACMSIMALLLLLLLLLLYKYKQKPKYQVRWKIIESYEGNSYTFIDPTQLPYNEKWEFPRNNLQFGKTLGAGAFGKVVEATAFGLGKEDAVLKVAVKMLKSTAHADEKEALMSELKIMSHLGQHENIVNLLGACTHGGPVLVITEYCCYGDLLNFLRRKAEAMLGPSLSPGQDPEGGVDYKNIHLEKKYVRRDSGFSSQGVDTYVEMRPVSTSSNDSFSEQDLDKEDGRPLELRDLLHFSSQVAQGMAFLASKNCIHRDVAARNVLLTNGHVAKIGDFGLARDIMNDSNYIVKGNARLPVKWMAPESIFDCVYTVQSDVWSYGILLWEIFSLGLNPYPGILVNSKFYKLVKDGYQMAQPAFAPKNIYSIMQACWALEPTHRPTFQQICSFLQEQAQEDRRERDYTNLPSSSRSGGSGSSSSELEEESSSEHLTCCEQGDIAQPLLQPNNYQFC
Measured property: Ki

**Query** What value of Ki on Macrophage colony-stimulating factor 1 receptor (Homo sapiens, UniProt P07333) does CC(=O)Nc1cc(N)c(C#N)c(-c2ccccc2)n1 have?
**Result** > 2.5 µM

* * *

- Assay target: Tyrosine-protein kinase Fyn (Homo sapiens)
Measured property: Ki

**Query** Give its Ki value. Item: CCOc1nc(NC(C)=O)cc(N)c1C#N
**Result** > 810 nM

* * *

- Assay target: Mitogen-activated protein kinase 8 (Homo sapiens, UniProt P45983)
- Assay procedure: Inhibition of JNK1-mediated ATF2 phosphorylation
Threshold-based label: IC50 under 3 µM gives MET, IC50 not under 3 µM gives NOT MET.

Please review the following examples before continuing.
Structure smiles string: CCOc1nc(NC(=O)Cc2cc(C)ccc2C)cc(N)c1C#N
Assay target: Mitogen-activated protein kinase 8 (Homo sapiens, UniProt P45983)
Assigned category: NOT MET

Structure smiles string: CC(=O)Nc1cc(N)c(C#N)c(OCCN(C)C)n1
Assay target: Mitogen-activated protein kinase 8 (Homo sapiens, UniProt P45983)
Assigned category: NOT MET

Structure smiles string: CCCCNCC(=O)Nc1cc(N)c(C#N)c(OCC)n1
Assay target: Mitogen-activated protein kinase 8 (Homo sapiens, UniProt P45983)
Assigned category: NOT MET

Structure smiles string: CCOc1nc(NC(=O)Cc2cccc(C)c2)cc(N)c1C#N
Assay target: Mitogen-activated protein kinase 8 (Homo sapiens, UniProt P45983)
Assigned category: MET

Structure smiles string: CCOc1cc(NC(C)=O)nc(N)c1C#N
Assay target: Mitogen-activated protein kinase 8 (Homo sapiens, UniProt P45983)
Assigned category: NOT MET

**Query** Criterion: IC50 strictly below 3 µM. Is it met by CCCCC(=O)Nc1cc(N)c(C#N)c(OCC)n1 ?
**Result** MET

**Query** Criterion: IC50 strictly below 3 µM. Is it met by CCCCC(=O)N(C)c1cc(N)c(C#N)c(OCC)n1 ?
**Result** NOT MET

**Query** Criterion: IC50 strictly below 3 µM. Is it met by CCOc1nc(NC(=O)CN2CCOCC2)cc(N)c1C#N ?
**Result** MET

**Query** Criterion: IC50 strictly below 3 µM. Is it met by CCCCN(CCCC)CC(=O)Nc1cc(N)c(C#N)c(OCC)n1 ?
**Result** NOT MET

**Query** Criterion: IC50 strictly below 3 µM. Is it met by CCCN(CCO)CC(=O)Nc1cc(N)c(C#N)c(OCC)n1 ?
**Result** MET

**Query** Criterion: IC50 strictly below 3 µM. Is it met by CCCc1nc(NC(C)=O)cc(N)c1C#N ?
**Result** NOT MET

* * *

- Assay target: Tyrosine-protein kinase Lyn (Homo sapiens, UniProt P07948)
- Sequence (P07948 whole entry): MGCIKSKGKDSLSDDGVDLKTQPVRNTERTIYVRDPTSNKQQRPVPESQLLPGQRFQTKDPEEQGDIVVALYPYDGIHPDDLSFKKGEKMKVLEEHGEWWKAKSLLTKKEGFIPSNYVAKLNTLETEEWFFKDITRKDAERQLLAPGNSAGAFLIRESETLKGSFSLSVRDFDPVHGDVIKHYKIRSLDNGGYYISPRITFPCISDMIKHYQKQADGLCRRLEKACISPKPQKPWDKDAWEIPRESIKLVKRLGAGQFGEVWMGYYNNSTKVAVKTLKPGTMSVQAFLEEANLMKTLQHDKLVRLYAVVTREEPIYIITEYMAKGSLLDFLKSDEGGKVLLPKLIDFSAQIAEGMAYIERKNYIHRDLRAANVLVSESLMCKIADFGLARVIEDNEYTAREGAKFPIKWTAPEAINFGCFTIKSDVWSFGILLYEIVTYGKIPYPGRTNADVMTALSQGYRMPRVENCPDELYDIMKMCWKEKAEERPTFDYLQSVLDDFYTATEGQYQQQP
Measured property: Ki

**Query** What value of Ki on Tyrosine-protein kinase Lyn (Homo sapiens, UniProt P07948) does CC(=O)Nc1cc(N)c(C#N)c(-c2ccccc2)n1 have?
**Result** > 1700 nM

* * *

- Assay target: Tyrosine-protein kinase Blk (Homo sapiens)
- Sequence (P51451 whole entry): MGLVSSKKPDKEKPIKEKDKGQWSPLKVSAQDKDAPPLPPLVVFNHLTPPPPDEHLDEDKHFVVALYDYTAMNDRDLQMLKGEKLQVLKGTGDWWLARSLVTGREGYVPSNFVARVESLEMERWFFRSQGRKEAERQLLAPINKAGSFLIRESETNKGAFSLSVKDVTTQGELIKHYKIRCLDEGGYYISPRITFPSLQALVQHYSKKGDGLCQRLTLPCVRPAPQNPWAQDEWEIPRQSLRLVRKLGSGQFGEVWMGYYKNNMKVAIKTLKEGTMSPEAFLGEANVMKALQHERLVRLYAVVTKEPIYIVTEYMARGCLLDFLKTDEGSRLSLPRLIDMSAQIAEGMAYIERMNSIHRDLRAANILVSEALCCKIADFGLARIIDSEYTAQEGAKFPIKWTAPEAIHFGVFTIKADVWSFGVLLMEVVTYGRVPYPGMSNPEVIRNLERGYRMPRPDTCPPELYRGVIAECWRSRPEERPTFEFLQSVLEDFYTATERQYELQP
pKi: −log10 of the molar value.
Measured property: pKi

**Query** Give its pKi value. Item: CC(=O)Nc1cc(N)c(C#N)c(-c2ccccc2)n1
**Result** < 5.82

* * *

- Assay target: Insulin receptor (Homo sapiens)
- Sequence (P06213 28-758 limits assumed): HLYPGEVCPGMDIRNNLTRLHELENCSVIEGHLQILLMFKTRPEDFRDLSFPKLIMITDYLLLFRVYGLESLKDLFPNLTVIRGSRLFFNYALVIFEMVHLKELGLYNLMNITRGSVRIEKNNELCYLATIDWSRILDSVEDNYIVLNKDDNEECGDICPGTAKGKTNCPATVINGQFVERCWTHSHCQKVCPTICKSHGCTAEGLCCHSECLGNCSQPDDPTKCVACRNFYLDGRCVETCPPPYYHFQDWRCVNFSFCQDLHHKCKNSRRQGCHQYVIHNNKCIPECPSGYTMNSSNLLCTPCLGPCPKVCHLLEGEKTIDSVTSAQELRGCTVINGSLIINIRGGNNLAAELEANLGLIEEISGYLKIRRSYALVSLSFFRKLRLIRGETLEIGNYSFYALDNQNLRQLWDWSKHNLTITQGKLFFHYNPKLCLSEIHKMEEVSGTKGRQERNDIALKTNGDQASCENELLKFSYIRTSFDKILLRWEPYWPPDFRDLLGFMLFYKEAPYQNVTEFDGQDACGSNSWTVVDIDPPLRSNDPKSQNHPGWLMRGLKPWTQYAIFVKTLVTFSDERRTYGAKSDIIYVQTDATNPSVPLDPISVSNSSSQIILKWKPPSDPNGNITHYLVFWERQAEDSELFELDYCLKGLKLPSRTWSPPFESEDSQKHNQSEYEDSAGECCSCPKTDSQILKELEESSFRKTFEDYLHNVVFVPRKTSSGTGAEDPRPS
- Sequence (P06213 763-1382 limits assumed): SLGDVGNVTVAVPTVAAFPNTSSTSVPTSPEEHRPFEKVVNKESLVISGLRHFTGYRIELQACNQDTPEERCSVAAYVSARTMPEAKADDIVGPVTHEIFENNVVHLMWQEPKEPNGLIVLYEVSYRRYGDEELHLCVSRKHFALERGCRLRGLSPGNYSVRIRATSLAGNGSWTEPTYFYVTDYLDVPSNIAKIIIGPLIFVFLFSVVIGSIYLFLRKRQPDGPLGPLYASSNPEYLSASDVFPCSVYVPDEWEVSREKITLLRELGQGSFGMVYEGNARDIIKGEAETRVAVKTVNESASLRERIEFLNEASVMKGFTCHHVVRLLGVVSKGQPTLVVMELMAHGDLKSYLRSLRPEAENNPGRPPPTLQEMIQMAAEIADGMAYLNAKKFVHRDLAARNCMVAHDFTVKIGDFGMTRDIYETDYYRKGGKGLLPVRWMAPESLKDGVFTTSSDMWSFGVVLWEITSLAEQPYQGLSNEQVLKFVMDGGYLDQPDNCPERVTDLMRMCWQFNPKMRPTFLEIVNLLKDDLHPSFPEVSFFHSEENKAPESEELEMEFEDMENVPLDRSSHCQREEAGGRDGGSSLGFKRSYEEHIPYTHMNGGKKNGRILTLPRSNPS
Measured property: Ki

**Query** Give its Ki value. Item: CC(=O)Nc1cc(N)c(C#N)c(-c2ccccc2)n1
**Result** > 5.2 µM

* * *

- Assay target: Serine/threonine-protein kinase pim-2 (Homo sapiens)
- Sequence (Q9P1W9 whole entry): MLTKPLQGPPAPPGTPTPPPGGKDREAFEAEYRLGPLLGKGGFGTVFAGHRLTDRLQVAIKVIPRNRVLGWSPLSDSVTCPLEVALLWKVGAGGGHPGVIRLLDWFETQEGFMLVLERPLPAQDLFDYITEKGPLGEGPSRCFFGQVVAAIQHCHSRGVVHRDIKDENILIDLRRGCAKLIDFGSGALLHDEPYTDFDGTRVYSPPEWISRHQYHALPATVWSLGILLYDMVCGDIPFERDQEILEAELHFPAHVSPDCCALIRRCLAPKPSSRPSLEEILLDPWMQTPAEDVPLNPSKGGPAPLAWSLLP
pKi: −log10 of the molar value.
Measured property: pKi

**Query** Give its pKi value. Item: CC(=O)Nc1cc(N)c(C#N)c(-c2ccccc2)n1
**Result** < 5.85

* * *

- Assay target: Mitogen-activated protein kinase 10 (Homo sapiens, UniProt P53779)
- Sequence (P53779 whole entry): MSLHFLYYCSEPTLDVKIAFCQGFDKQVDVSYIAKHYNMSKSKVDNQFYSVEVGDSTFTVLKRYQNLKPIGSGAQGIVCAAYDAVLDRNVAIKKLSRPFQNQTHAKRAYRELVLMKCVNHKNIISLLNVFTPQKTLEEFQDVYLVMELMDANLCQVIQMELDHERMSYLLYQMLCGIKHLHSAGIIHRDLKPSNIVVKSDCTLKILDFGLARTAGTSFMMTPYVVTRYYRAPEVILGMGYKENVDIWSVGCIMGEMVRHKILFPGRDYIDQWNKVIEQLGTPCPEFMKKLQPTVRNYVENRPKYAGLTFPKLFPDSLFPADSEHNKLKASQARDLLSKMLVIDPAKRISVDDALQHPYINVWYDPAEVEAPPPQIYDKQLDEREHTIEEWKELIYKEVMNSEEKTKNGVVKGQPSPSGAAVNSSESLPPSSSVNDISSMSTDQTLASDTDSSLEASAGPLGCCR
- Assay procedure: Inhibition of JNK3-mediated ATF2 phosphorylation
Measured property: Ki (nM)
Numeric only. Scale: nM

Structure smiles string: CCOc1nc(NC(=O)Cc2cc(OC)c(S(C)(=O)=O)cc2OC)cc(N)c1C#N
Assay target: Mitogen-activated protein kinase 10 (Homo sapiens, UniProt P53779)
Ki, nM: 72

**Query** Give its Ki value. Item: CCOc1nc(NC(=O)Cc2cc(OC)c(S(C)(=O)=O)cc2OC)cc(N)c1Cl
**Result** 61
